# Read-out: Urokinase-type plasminogen activator receptor (uPAR), PLAUR (gene 5329)
# method_summary: BSK_CASM3C_uPAR: BioMAP Diversity Plus: CASM3C Assay for Urokinase-type plasminogen activator receptor (uPAR) Biomarker Activity (AID 2283054);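 also: cell-surface uPAR protein level quantified by ELISA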
# test_context: primary human coronary artery smooth muscle cells; actives raise or lower the signal
Active and inactive are the calls of the source. The calls were made as follows: active = hit-call score of the fitted dose curve at least 0.9, where 1 is the maximum; inactive = score below 0.9.
Choose one outcome from this list and give only that: true for active, false for inactive

INSERT INTO measurements (compound, group_label) VALUES
  ('CCCCC(CC)COC(=O)C=Cc1ccc(OC)cc1 (stereo not given)', 'false'),
  ('CC(C)C1OCCN1CCOC(=O)NCCCCCCNC(=O)OCCN1CCOC1C(C)C (stereo not given)', 'false');

Enquiry: Status in this test for COC(=O)/C=C\C(=O)OC ?
Return: false

Enquiry: Status in this test for CC(C)CC(=O)CC(C)CC(C)C (stereo not given) ?
Return: true

Enquiry: Status in this test for O=C(C(=O)c1ccccc1)c1ccccc1 ?
Return: false

Enquiry: Status in this test for CC[N+](CC)(CC(=O)Nc1c(C)cccc1C)Cc1ccccc1 ?
Return: false
